tested on: NMDA plus glycine-evoked [3H]-D-aspartic acid release from rat spinal synaptosomes; test: Inhibition of NMDA+glycine-induced glutamate ([3H]-D-Asp) release from rat spinal synaptosomes (Example 2); assay type: biochemical; details: rat spinal synaptosomes; 10 μM NMDA plus 1 μM glycine; read-out: estimated IC50 for inhibition of NMDA plus glycine-evoked [3H]-D-aspartic acid release
Experimental Readout: pIC50
Give only the number. pIC50 is defined as minus log10 of concentration in molar units.

O=C1CN2C(=O)CC[C@@H]2N1 [(R)-dimiracetam]
6.91

Noted for O=C1CN2C(=O)CC[C@H]2N1 [(S)-dimiracetam] : its pIC50 reads 6.38
